Origin of measurements: patent US9301923B2

# EXPERIMENT: pKa of the lipid by TNS fluorescence
# Format: physicochemical
# DETAILS: pKa
Recorded pKa values for a group of compounds are listed next.

{"COMPOUND": "CCCCC/C=C\\C/C=C\\CCCCCCCCCCC(CN(C)C)OC(=O)CCC(=O)O[C@H]1CC[C@@]2(C)C(=CCC3C2CC[C@@]2(C)C3CC[C@@H]2[C@H](C)CCCC(C)C)C1 (some centres unmarked) [E0174, reference compound]", "pKa": 5.15}
{"COMPOUND": "CCCCC/C=C\\C/C=C\\CCCCCCCCOCC(CN1CCCC1C)OCCOCCOCCOCCO[C@H]1CC[C@@]2(C)C(=CC[C@H]3[C@@H]4CC[C@H]([C@H](C)CCCC(C)C)[C@@]4(C)CC[C@@H]32)C1 (some centres unmarked) [E0084]", "pKa": 7.27}

* * *

In this section, each of the compounds is paired with its reported Final size (nm).
# EXPERIMENT: Particle size and PDI by dynamic light scattering (Malvern Zetasizer)
# Type: physicochemical
# DETAILS: lipid/DSPC/CHOL/AVANTI 880150P 50/28/18/4, N/P 3.43
QUANTITY KIND: Final size (nm)

{"COMPOUND": "CCCCC/C=C\\C/C=C\\CCCCCCCCOCC(Cn1ccnc1)OCCOCCO[C@H]1CC[C@@]2(C)C(=CCC3C2CC[C@@]2(C)C3CC[C@@H]2[C@H](C)CCCC(C)C)C1 (some centres unmarked) [E0051]", "RECORDED RESULT": "157.7 nm"}
{"COMPOUND": "CCCCC/C=C\\C/C=C\\CCCCCCCCOC[C@@H](CN1CCCCC1)OCCOCCO[C@H]1CC[C@@]2(C)C(=CCC3C2CC[C@@]2(C)C3CC[C@@H]2[C@H](C)CCCC(C)C)C1 (some centres unmarked) [E0034]", "RECORDED RESULT": "99 nm"}
{"COMPOUND": "CCCCC/C=C\\C/C=C\\CCCCCCCCOCC(CN1CCN(C(=O)OC(C)(C)C)CC1)OCCOCCO[C@H]1CC[C@@]2(C)C(=CC[C@H]3[C@@H]4CC[C@H]([C@H](C)CCCC(C)C)[C@@]4(C)CC[C@@H]32)C1 (some centres unmarked) [E0002]", "RECORDED RESULT": "109 nm"}
{"COMPOUND": "CCCCC/C=C\\C/C=C\\CCCCCCCCOCC(CN1CCCCC1)OCCCCO[C@H]1CC[C@@]2(C)C(=CCC3C2CC[C@@]2(C)C3CC[C@@H]2[C@H](C)CCCC(C)C)C1 (some centres unmarked) [E0027]", "RECORDED RESULT": "146 nm"}
{"COMPOUND": "CCCCC/C=C\\C/C=C\\CCCCCCCCOCC(CN1Cc2ccccc2C1)OCCOCCO[C@H]1CC[C@@]2(C)C(=CCC3C2CC[C@@]2(C)C3CC[C@@H]2[C@H](C)CCCC(C)C)C1 (some centres unmarked) [E0029]", "RECORDED RESULT": "137 nm"}

* * *

# EXPERIMENT: Particle size and PDI by dynamic light scattering (Malvern Zetasizer)
# Type: physicochemical
# DETAILS: lipid/DSPC/CHOL/AVANTI 880150P 50/28/18/4, N/P 3.43

{"MOLECULE": "CCCCC/C=C\\C/C=C\\CCCCCCCCOCC(CN1CC[C@@H]2CCCC[C@H]2C1)OCCOCCO[C@H]1CC[C@@]2(C)C(=CCC3C2CC[C@@]2(C)C3CC[C@@H]2[C@H](C)CCCC(C)C)C1 (some centres unmarked)", "Final size (nm)": 83}
{"MOLECULE": "CCCCC/C=C\\C/C=C\\CCCCCCCCOC[C@@H](CN1CCC[C@H]1C)OCCOCCO[C@H]1CC[C@@]2(C)C(=CCC3C2CC[C@@]2(C)C3CC[C@@H]2[C@H](C)CCCC(C)C)C1 (some centres unmarked)", "Final size (nm)": 100.4}
